target: T1, human IL1RAP (hu-IL1RAP) on human cells (human, UniProt Q9NPH3 21-570)
T1 sequence: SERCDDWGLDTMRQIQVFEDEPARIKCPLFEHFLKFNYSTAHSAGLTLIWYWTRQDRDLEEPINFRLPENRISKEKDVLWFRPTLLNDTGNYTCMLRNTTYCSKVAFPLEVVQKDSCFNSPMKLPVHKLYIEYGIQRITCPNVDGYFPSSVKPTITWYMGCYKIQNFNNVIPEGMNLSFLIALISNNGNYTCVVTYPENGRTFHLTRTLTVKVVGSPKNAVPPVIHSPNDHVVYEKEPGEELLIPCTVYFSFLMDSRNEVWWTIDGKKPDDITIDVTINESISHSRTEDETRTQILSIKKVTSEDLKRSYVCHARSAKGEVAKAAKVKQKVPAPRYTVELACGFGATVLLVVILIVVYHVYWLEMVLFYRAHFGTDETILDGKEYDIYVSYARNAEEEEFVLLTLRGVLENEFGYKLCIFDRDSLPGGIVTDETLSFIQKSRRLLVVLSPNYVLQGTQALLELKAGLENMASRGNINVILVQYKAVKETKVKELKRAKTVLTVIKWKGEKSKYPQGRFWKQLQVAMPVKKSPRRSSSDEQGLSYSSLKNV
test name: cell-based or functional assay
recorded metric: HEK-Blue, IL-1β, % inhibition at 100 nM (IgG) (%)
One number for each entry, in %.

binder	units symbol	observed result
K10/H2 IgG (VL-A51Y, VH-R96D) (antibody, V domains shown) VH: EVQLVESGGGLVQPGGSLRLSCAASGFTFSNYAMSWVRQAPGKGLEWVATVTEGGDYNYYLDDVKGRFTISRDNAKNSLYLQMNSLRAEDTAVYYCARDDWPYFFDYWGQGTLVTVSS VL: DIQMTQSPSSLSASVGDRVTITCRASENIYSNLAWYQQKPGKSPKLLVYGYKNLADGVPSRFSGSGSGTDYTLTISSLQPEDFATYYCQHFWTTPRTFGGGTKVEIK	%	100
K13 IgG (VL-A51Y/W92I) (antibody, V domains shown) VH: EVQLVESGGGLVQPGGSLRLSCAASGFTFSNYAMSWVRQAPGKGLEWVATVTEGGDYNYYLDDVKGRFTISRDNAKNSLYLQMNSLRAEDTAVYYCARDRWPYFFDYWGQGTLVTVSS VL: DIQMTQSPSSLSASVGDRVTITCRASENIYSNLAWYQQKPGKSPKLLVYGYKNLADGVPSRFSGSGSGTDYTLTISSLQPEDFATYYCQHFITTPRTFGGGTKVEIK	%	100
K17 IgG (VL-A51Y/W92K) (antibody, V domains shown) VH: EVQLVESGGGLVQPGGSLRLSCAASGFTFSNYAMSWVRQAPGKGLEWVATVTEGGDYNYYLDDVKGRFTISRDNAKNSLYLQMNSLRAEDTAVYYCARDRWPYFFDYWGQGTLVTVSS VL: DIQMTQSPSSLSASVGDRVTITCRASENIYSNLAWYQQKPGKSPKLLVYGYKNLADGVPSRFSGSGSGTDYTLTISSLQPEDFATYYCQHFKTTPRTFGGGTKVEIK	%	100
K10/H3 IgG (VL-A51Y, VH-V51S) (antibody, V domains shown) VH: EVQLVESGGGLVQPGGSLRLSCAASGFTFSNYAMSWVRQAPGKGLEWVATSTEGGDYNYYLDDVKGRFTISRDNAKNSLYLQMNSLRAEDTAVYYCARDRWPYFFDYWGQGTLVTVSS VL: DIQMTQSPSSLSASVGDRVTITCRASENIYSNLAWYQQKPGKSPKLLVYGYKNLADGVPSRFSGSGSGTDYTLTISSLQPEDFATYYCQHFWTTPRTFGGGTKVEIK	%	100

We now examine a further binder.
stdin: Entry h11C5 variant K17/H3 IgG (YKS) (antibody, V domains shown, Human IgG1 N297G; also called 11C5-YKS) VH: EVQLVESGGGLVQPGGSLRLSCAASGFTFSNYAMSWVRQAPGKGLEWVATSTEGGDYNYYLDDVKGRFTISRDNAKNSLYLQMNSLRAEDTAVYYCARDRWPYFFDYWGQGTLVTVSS VL: DIQMTQSPSSLSASVGDRVTITCRASENIYSNLAWYQQKPGKSPKLLVYGYKNLADGVPSRFSGSGSGTDYTLTISSLQPEDFATYYCQHFKTTPRTFGGGTKVEIKR has what HEK-Blue, IL-1β, % inhibition at 100 nM (IgG)?
stdout: 100
